Origin of measurements: the DeepSol protein solubility set

- procedure.details: soluble on expression in E. coli; label from the status in PepcDB or PDB records

| macromolecule.sequence | soluble on expression in E. coli |
| --- | --- |
| SLSWDSVVERIRIFLVESPIKMARLQGVGNVKGSVKRVLLEVTSADGIVGWGEAAPWEVFTGTPEAAFSALDIYLRPLILGAPIKRVRELMARMDKMLVGHGEAKAAVEMALLDILGKATGLSVADLLGGRVRDRIPLSFSIADPDFDADLERMRAMVPAGHTVFKMKTGVKPHAEELRILETMRGEFGERIDLRLDFNQALTPFGAMKILRDVDAFRPTFIEQPVPRRHLDAMAGFAAALDTPILADESCFDAVDLMEVVRRQAADAISVKIMKCGGLMKAQSLMAIADTAGLPGYGGTLWEGGIALAAGTQLIAATPGISLGCEFYMPHHVLTEDVLEERIANSAGHVIVPDGPGLGISISEASLRGNAKILAER | soluble |
| SDLWVQKMKTYFNRIDFDKDGAITRMDFESMAERFAKESEMKAEHAKVLMDSLTGVWDNFLTAVAGGKGIDETTFINSMKEMVKNPEAKSVVEGPLPLFFRAVDTNEDNNISRDEYGIFFGMLGLDKTMAPASFDAIDTNNDGLLSLEEFVIAGSDFFMNDGDSTNKVFWGPLV | soluble |

====

- procedure.details: soluble on expression in E. coli; label from the status in PepcDB or PDB records
measured.metric: soluble on expression in E. coli

| macromolecule.sequence | observed.value |
| --- | --- |
| MYNDEELITVQPEAFKALTPSKKFNETSNKLLDLAYSDDGNNLIVSAEDVVLVYDLRDGSKGKSIECKKYGVNCLEYLDTVKCVHSGPNDTTIRLLHLQKKSYVRYFDGHRMPVNFIRTNPKDREKFLSSSVDGEIRMFDTRTFENYGCLLAGHTPLIAFDPDGILFAVATKSDTIKLFDMRSFDLGPFQSFIITKTDNDEWSDIEFSPCGKFILISTTAGSVKWIDAFDGTLIHSFSQHKNPNVSFF | not soluble |
| MGSDKIHHHHHHMQAKTTLEQWEILQAVIDLGGYTQAANVLHRSQSSVSYQLSLLQERLGIELLTIHGRKAELTPEGENLLAQARSVIRSFHALEARAHSLKMGEQASINLVVDSTFPKDRLFHLLSTFQKQHPATRIHLTEVLRNETSAQLKARDADIYIITQREIDGCAGRWLMNVDFVAVAHSHHPLFSLPTPLSHEALSRYPCVEIVMRTPPHSQPASAESWTFTTFEAATQAVLHQVGYGWLPEARISEHITRGELHILPLQQGERRTTPLYLLAEEKGQPLGKEIIMLIELLFGRL | not soluble |
| MVRQPAVAGQFYTDDPRRLREELGHLIRPVPAPRRVTGVIAPHAGYMYSGAIAGAVYGSIVIPRTVVILGPNHHGLGAAASLYPDGTWLSPLGEVPIEQRLSSLVLEHVPQAEPDVIAHRFEHSLEVQVPFLRYLNSDVAIVPMCLGGGGYGWCRQVGEGLARAIAAYGEEVLIVASSDMTHYESAESARLKDEAALSCVLALDAEGLLKVCRQRGITMCGVIPSTVMLVAARELGASRAELIRYGTSGDVTGDNRQVVAYAAVAVYLEHHHHHH | not soluble |

====

- procedure.details: soluble on expression in E. coli; label from the status in PepcDB or PDB records

| macromolecule.sequence | soluble on expression in E. coli |
| --- | --- |
| MSLGTAVLDLMANGVDMLCWADPFFPDPVLPEHISQAVIKSMENGSASHYTMPIGNPELKEKIALKLQRYNNLTVEAQRNILITPGSDSGLLFAMMPFINNDDEVLIHSPSYPSNFLNVELLGGKPISVELKAENNFQIDIKDFENKITEKTKMVILTNPNNPTGTVLRRESLQAIADFIIAHDLILVVDQAFEDAIFDEIEFISIASLPGMWERTVSVFSFSKGMGLSGFRVGYLVADAQIVDVLFGCTVNVVGATNTSSQAGMIAALDEPSFMGEYTQIFERRRKVVFEMMNAIPGVCMVMPESGFLSWIDISKLGTSTFICDYLLQHAHVMVNSGVPYGQGGEGYIRLVHGCYKDDEKLYAVLTRIQQALMQLAKEGHHHHHH | not soluble |
| MEVDNVKPSSSVPQRNWEKENNVQNVDSIFEYNNKQQVEIRNAKPWDKDPHYFKQIKISAIALLKMTMHAKRGGNLEIMGLLQGRIDANSFIILDVFALPVEGTETRVNAQAQAYEYMTVYSEMCDTEGRKEKVVGWYHSHPGYGCWLSGIDVSTQTLNQKFQEPWVAIVIDPLRTMSAGKVDIGAFRTYPEGYRPPDDVPSEYQSIPLAKIEDFGVHCKRYYSLDVSFFKSQLDAHILTSLWNSYWISTLSSSPLFSNVEFLNNQIQDINQKLSAVDKKLQLNDRSVDGHEALMKVVTDAKAVGDELETGRISHLVKQLLFARQAGGGCGCSHASAGSPMDIAVATEPEKAGPSPSAPEPAVEMADA | not soluble |

====

- procedure.details: soluble on expression in E. coli; label from the status in PepcDB or PDB records
measured.metric: soluble on expression in E. coli

Before answering, review these 6 worked examples.
| macromolecule.sequence | soluble on expression in E. coli |
| --- | --- |
| MGSDKIHHHHHHMKPIDLDKLDLLTLSILVSLYENKSATHVSRILDVPASKISRCLHTARLIFGDELFIRRKYGLVPNDYAGKIYPIAKEIVECAKHFNRLNSAEQSHNRYFELVIPGMIAYAYPRALMKAIKEHNKNIHINVSSWSSHSLESVTSDPHCIVMCCCKGPEEILCFDQKLQVEVLATMNRQYLLSCRKHPILKQDISLETIAKYPYINTFIGTQAPILNPFQEYCQAKDLSLNTEMTITSVSSLFDYLSDCQSLAITPYKAVYDMLDDDSGLHACQLSEYECNRLFEVVEPLKLVLVTHPSADNEDTAWLKQQIRELTHELI | not soluble |
| MLDFAAIDFETANAERTSVCSVGIIVVRGGQIVHRYYSLIRPEPDYYNYHNTRVHGLTAADTESARIFPDVWAEVEPLIAGLPLVAHNKPFDEGCLKAVFRMYRMDYPDYPFFCTLQAARRQLRHLSDHRLPTVAQCCGYTLAQHHQALADAEACAAIALKLL | not soluble |
| MKKTAIAIAVALAGFATVAQAEVKLHESGAGLVKPGASVEISCKATGYTFSSFWIEWVKQRPGHGLEWIGEILPGRGRTNYNEKFKGKATFTAETSSNTAYMQLSSLTSEDSAVYYCATGNTMVNMPYWGQGTTVTVSSASTKGPSVFPLAPSSKSTSGGTAALGCLVKDYFPEPVTVSWNSGALTSGVHTFPAVLQSSGLYSLSSVVTVPSSSLGTQTYICNVNHKPSNTKVDKKVEPKSCSAWSHPQFEK | soluble |
| MSIKPIDFQMMIPKTAEISKIQNDQQQKSVVVNEQQTNITRQKFEENVNTVHARENAEKVRIDSEQKKKKEERGRKKNPNRAKYGTKGEKEPEEQTSVIDIRL | not soluble |
| MLKDEYGRVVTNLRIAVTKKCNLRCFYCHKEGESNPGEEISAERIVEIARAFKELGVRKLKITGGEPLLRKDLPDIILNLPEFEEISMTTNGILLEKYAEELRECGLSRVNVSLDTLDAEKYRWITGGGEVQKVVNGIEKACEVGLTPVKINMLVLGGVNDNEVDELLEFTNSFNRGNTKAILQVIELVPFPGFEKYFFDISTIEEKYARMATQRRVRAMHRRTQYFTPKGVIEFVKPMDNTAFCMHCNRMRVTSDGKLKPCLLRNETITIDGKHGEELARAIIETVRKREPYFKG | not soluble |
| MAHHHHHHMIARDPPQEGRLPDPSRLPYDDERFAEMLLEMEVNGVIDETWQDAKKARMEDVKEIANILSSLKVRDLCCVDVSEKTSNFDYMMFGTCEGARHIHLAAWAVQDADKVHRISKIKRQQTDELWEVVPVGRIVVNLMVESFREEMTLERKWAVTRSMDPLAAANAPISEGRQVKAHGLWTLTLNLQDLEDFEVDYCKDILMRQM | soluble |

# ---- query sequence ----
Prompt line: Report soluble on expression in E. coli for "LTELYDAIPASIIIIDERMRLIGWNRFSRDTINGLSDNEMPGINPMKRVHPDDLPEMIRKMRNVIDLDIELSAEFRMYHKSGPPYKWAMCRGKRTIIEGKTCVVAVVTEIT" please.
Response line: not soluble

====

- procedure.details: soluble on expression in E. coli; label from the status in PepcDB or PDB records

| macromolecule.sequence | soluble on expression in E. coli |
| --- | --- |
| MVYVSNKYLTMSEMKVNAQYILNYLSSNGWTKQAICGMLGNMQSESTINPGLWQNLDEGNTSLGFGLVQWTPASNYINWANSQGLPYKNMDSELKRIIWEVNNNAQWINLRDMTFKEYIKSTKTPRELAMIFLASYERPANPNQPERGDQAEYWYKNLSGGGGGGLQLAQFPMDIINISQGENGSFSHKGTLCIDFVGKTEKYPYYAPCDCTCVWRGDASAYLAWTSDKEVMCADGSVRYITWVNVHESPLPFDVGKKLKKGDLMGHTGIGGNVTGDHWHFNVIDGKEYQGWTKKPDSCLAGTELHIYDVFAVNNVEIINGNGYDWKTSDWQDG | soluble |
| GHMSGFKHVSHVGWDPQNGFDVNNLDPDLRSLFSRAGISEAQLTDAETSKLIYDFIEDQGGLEAVRQEMRRQ | soluble |
